B1: PI4K2A (parent)
chain: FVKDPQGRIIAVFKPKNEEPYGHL

Variants of: B1
Assay: protein stability index of a GFP-peptide fusion (GPS, HEK-293T) (PSI 1-6); higher = more stable;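 further: lentivirally expressed fusions sorted by FACS into six bins by GFP to DsRed ratio, PSI derived from sequencing read proportions per bin multiplied by bin number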
Conditions: c terminus: a fixed tail appended
Recorded protein stability index by entry
Give only the figure.

(Q) Recall and state the measured protein stability index for K3S .
(A) 2.67

(Q) Specify reported protein stability index for the variant shown: F1Q
(A) 3.69

(Q) State, in one line, measured protein stability index of F1C
(A) 2.77
